# Tested on: SK-MEL-28 melanoma
# assay_comment: NCI-60 one-dose screen, 48 h (100 = growth as untreated, 0 = no growth, -100 = all killed)
# experimental_context: 10 µM
# Procedure: Growth inhibition of the SK-MEL-28 human tumor cell line is measured as a screen for anti-cancer activity. Cells are grown in 96 well plates and exposed to the test compound for 48 hours. Compounds are tested at a single concentration, which is 10^-5 M for most compounds. The reported endpoint is percent growth (GI% or GIPRCNT), where numbers from 0 - 100% represent growth inhibition, and numbers from -100% - 0 represent cell death. For example, a value of 40 represents 60% growth inhibition. […]
The panel holds about 83,000 compounds, 20% with a hit somewhere; the sample as a whole holds those more often.
Listing of recorded growth by entry.
attribute_measured: growth (%)

molecule: COc1cccc2c1C(=O)c1c(O)c3c(c(O)c1C2=O)C[C@@](O)(C(C)=O)C[C@@H]3OC1CC(N)C(O)C(C)O1 (some centres undefined)
value_reported: -51

molecule: Clc1ccc(/C=C/c2ccccn2)c(Cl)c1
value_reported: 120

molecule: CN1CCN(CCCN2c3ccccc3Sc3ccc(C(F)(F)F)cc32)CC1
value_reported: -45.4

molecule: Cc1cc(NS(=O)(=O)c2ccc(N=Nc3cc(N=Nc4ccc(S(=O)(=O)Nc5cc(C)nc(C)n5)cc4)c4c(NC(=O)C(Cl)Cl)cccc4c3OC(=O)C(Cl)Cl)cc2)nc(C)n1 (tested in a mixture with another compound)
value_reported: 111

molecule: O=[N+]([O-])C1=C(c2ccccc2)SC=C(c2ccccc2)S1
value_reported: 88.2

molecule: CS(=O)(=O)OC1CC(n2ccc(=O)[nH]c2=O)OC1COC(c1ccccc1)(c1ccccc1)c1ccccc1 (centres undefined)
value_reported: 104

molecule: CC1=CC(C)=Nc2ccc(Cl)cc2N1
value_reported: 124

molecule: Oc1ccc(N=Nc2ccccn2)c(O)c1
value_reported: 31.7

molecule: CCN1/C(=C/C=C/C=C/c2sc3ccccc3[n+]2CC)Sc2ccccc21
value_reported: -56.6

###

# System: NCI-H460 lung
# assay_comment: NCI-60 one-dose screen, 48 h (100 = growth as untreated, 0 = no growth, -100 = all killed)
# experimental_context: 10 µM
This is part of a sample that, as a whole, favours compounds with a hit. Of some 83,000 tested, about 20% had one in any assay. Activity calls are given as the source filed them. Rule for the calls: active = growth percent below 10; inactive = the rest.

compound: Cc1nc(N=C(N)N)nc2ccc3ccccc3c12
growth: -44.4% (active)
//
compound: CS(=O)(=O)OC1CC(n2ccc(=O)[nH]c2=O)OC1COC(c1ccccc1)(c1ccccc1)c1ccccc1 (centres undefined)
growth: 112% (inactive)
//
compound: Cc1cc(O)c(C(C)C)cc1Cl
growth: 99.1% (inactive)
//
compound: NNc1ccc2ccccc2c1
growth: 105% (inactive)
//
compound: CSC1SCC2C(=O)N(C)C(C(C)C)C(=O)OCC(NC(=O)c3cnc4ccccc4n3)C(=O)NC(C)C(=O)N(C)C1C(=O)N(C)C(C(C)C)C(=O)OCC(NC(=O)c1cnc3ccccc3n1)C(=O)NC(C)C(=O)N2C (centres undefined)
growth: 4.33% (active)
//
compound: CCC(C)(C)c1cc(O)c(C(C)(C)CC)cc1O
growth: 21.2% (inactive)
//
compound: Clc1cc(Cl)c(Cl)nn1
growth: 99% (inactive)
//
compound: COc1cccc2c1C(=O)c1c(O)c3c(c(O)c1C2=O)C[C@@](O)(C(=O)CO)C[C@@H]3OC1CC(N)C(O)C(C)O1 (some centres undefined)
growth: 0.571% (active)
//
compound: O=C(O)COc1ccc(OCC(=O)O)cc1
growth: -17.8% (active)
//
compound: O=c1ccn(C2CC(O)C(COC(c3ccccc3)(c3ccccc3)c3ccccc3)O2)c(=O)[nH]1 (centres undefined)
growth: 91.2% (inactive)
//
compound: CCCCCCCCCCSC(=N)N
growth: 23.8% (inactive)
//
compound: O=C1C=CC(=CC=C2C=CN(CCCCCCCCCCCO)C=C2)C=C1
growth: 17.5% (inactive)
//
compound: OCC(O)C(O)C(O)C(/C=N/Nc1ccccc1)=N/Nc1ccccc1 (centres undefined)
growth: 89.9% (inactive)
//
compound: CCCCCCCCCCCCCCCCCCOCC(COP(=O)([O-])OCC[N+](C)(C)C)OC (centres undefined)
growth: 46.4% (inactive)
//
compound: CCCCCC(C)c1ccc(O)c(C)c1 (centres undefined)
growth: 107% (inactive)
//
compound: CO[C@H](C(=O)[C@@H](O)[C@@H](C)O)[C@@H]1Cc2cc3cc(OC4CC(OC5CC(O)C(O)C(C)O5)C(O)C(C)O4)c(C)c(O)c3c(O)c2C(=O)[C@H]1OC1CC(OC2CC(OC3CC(C)(O)C(O)C(C)O3)C(O)C(C)O2)C(O)C(C)O1 (some centres undefined)
growth: 2.6% (active)
//
compound: COC(=O)C1C(O)C(C)C(O)C(C)C=C(C)C2=C3C(=C(C)C(=O)c4c(O)c(c(C)c(OC(C)=O)c43)NC(=O)C(C)=C/C=C\C(C)C(O)C(C)C1O)OCO2 (centres undefined)
growth: 114% (inactive)
//
compound: COc1ccc(CC(=O)c2ccc(O)cc2O)cc1
growth: 115% (inactive)
//
compound: CC(=O)Nc1cc(C)ccc1C
growth: 106% (inactive)
//
compound: O=C1NC(=O)c2cc([N+](=O)[O-])ccc21
growth: 105% (inactive)
//
compound: NNc1c2ccccc2nc2ccccc12
growth: 10% (inactive)
//
compound: CC[N+](CC)=c1ccc2nc3c(cc(N)c4ccccc43)oc-2c1
growth: -57.4% (active)
//
compound: COc1c(O)cc2oc3cc(O)c(CC=C(C)C)c(O)c3c(=O)c2c1CC=C(C)C
growth: 28.4% (inactive)
//
compound: O=C(/C=C/c1cccnc1)c1ccccc1
growth: 87.6% (inactive)

###

Reported growth values for a set of molecules
# Tested on: SNB-19 CNS
# assay_comment: NCI-60 one-dose screen, 48 h (100 = growth as untreated, 0 = no growth, -100 = all killed)
# experimental_context: 10 µM
This is part of a sample that, as a whole, favours compounds with a hit. Of some 83,000 tested, about 20% had one in any assay.

molecule: Clc1cc(Cl)c(Cl)nn1
growth / %: 94.2

molecule: CO[C@H](C(=O)[C@@H](O)[C@@H](C)O)[C@@H]1Cc2cc3cc(OC4CC(OC5CC(O)C(O)C(C)O5)C(O)C(C)O4)c(C)c(O)c3c(O)c2C(=O)[C@H]1OC1CC(OC2CC(OC3CC(C)(O)C(O)C(C)O3)C(O)C(C)O2)C(O)C(C)O1 (stereo not given in full)
growth / %: 13.3

molecule: CCCCCCCCCCCCCCCCCCOCC(COP(=O)([O-])OCC[N+](C)(C)C)OC (stereo not given)
growth / %: 80.8

molecule: CCN(CC)c1ccc(NC(C(=O)c2ccccc2)c2ccccc2)cc1 (stereo not given)
growth / %: 36.6

molecule: CC(=O)OCC(OC(C)=O)C(OC(C)=O)C(OC(C)=O)C(OC(C)=O)C(/C=N/Nc1ccccc1)=N/Nc1ccccc1 (stereo not given)
growth / %: 88.9

###

# Test system: RPMI-8226 leukemia
# assay_comment: NCI-60 one-dose screen, 48 h (100 = growth as untreated, 0 = no growth, -100 = all killed)
# experimental_context: 10 µM
Compounds without any hit were thinned out: in the full panel of roughly 83,000, 20% have a hit.
Would you mind classing the entries by growth? Ranges: bin 0: < 30%; bin 1: ≥ 30% and < 80%; bin 2: ≥ 80%

molecule: COC1OCC(O)C(O)C1O (stereo not given)
class_name: bin 2
//
molecule: OC(CN1CCCC2CCCCC21)c1cc2ccccc2c2ccccc12 (stereo not given)
class_name: bin 0
//
molecule: CC(=O)OCC(OC(C)=O)C(OC(C)=O)C(OC(C)=O)C(OC(C)=O)C(/C=N/Nc1ccccc1)=N/Nc1ccccc1 (stereo not given)
class_name: bin 1
//
molecule: CC1=CC(C)=Nc2ccc(Cl)cc2N1
class_name: bin 2
//
molecule: OCC(O)C(O)C(O)C(/C=N/Nc1ccccc1)=N/Nc1ccccc1 (stereo not given)
class_name: bin 2
//
molecule: COC(=O)C1C(O)C(C)C(O)C(C)C=C(C)C2=C3C(=C(C)C(=O)c4c(O)c(c(C)c(OC(C)=O)c43)NC(=O)C(C)=C/C=C\C(C)C(O)C(C)C1O)OCO2 (stereo not given)
class_name: bin 2
//
molecule: Oc1ccc(N=Nc2ccccn2)c(O)c1
class_name: bin 0
//
molecule: CCN(CC)c1ccc(NC(C(=O)c2ccccc2)c2ccccc2)cc1 (stereo not given)
class_name: bin 0
//
molecule: COc1c(O)cc2oc3cc(O)c(CC=C(C)C)c(O)c3c(=O)c2c1CC=C(C)C
class_name: bin 1
//
molecule: CSC1SCC2C(=O)N(C)C(C(C)C)C(=O)OCC(NC(=O)c3cnc4ccccc4n3)C(=O)NC(C)C(=O)N(C)C1C(=O)N(C)C(C(C)C)C(=O)OCC(NC(=O)c1cnc3ccccc3n1)C(=O)NC(C)C(=O)N2C (stereo not given)
class_name: bin 0
//
molecule: Clc1ccc(/C=C/c2ccccn2)c(Cl)c1
class_name: bin 2
//
molecule: CCO/C=C1\SC(=S)N(c2cccc(O)c2)C1=O
class_name: bin 2
//
molecule: CO[C@H](C(=O)[C@@H](O)[C@@H](C)O)[C@@H]1Cc2cc3cc(OC4CC(OC5CC(O)C(O)C(C)O5)C(O)C(C)O4)c(C)c(O)c3c(O)c2C(=O)[C@H]1OC1CC(OC2CC(OC3CC(C)(O)C(O)C(C)O3)C(O)C(C)O2)C(O)C(C)O1 (stereo not given in full)
class_name: bin 0
//
molecule: N=S(c1ccccc1[N+](=O)[O-])c1ccccc1[N+](=O)[O-]
class_name: bin 1
//
molecule: NNc1c2ccccc2nc2ccccc12
class_name: bin 1
//
molecule: CN(C)C(=S)SC(=S)N(C)C
class_name: bin 1
//
molecule: O=[N+]([O-])C1=C(c2ccccc2)SC=C(c2ccccc2)S1
class_name: bin 1
//
molecule: O=c1ccn(C2CC(O)C(COC(c3ccccc3)(c3ccccc3)c3ccccc3)O2)c(=O)[nH]1 (stereo not given)
class_name: bin 2
//
molecule: NC1=C(Cl)C(=O)c2ccccc2C1=O
class_name: bin 1
//
molecule: COc1cccc2c1C(=O)c1c(O)c3c(c(O)c1C2=O)C[C@@](O)(C(=O)CO)C[C@@H]3OC1CC(N)C(O)C(C)O1 (stereo not given in full)
class_name: bin 0
//
molecule: O=C(/C=C/c1ccccn1)c1ccccc1
class_name: bin 0
//
molecule: Clc1cc(Cl)c(Cl)nn1
class_name: bin 1
//
molecule: COc1cccc2c1C(=O)c1c(O)c3c(c(O)c1C2=O)C[C@@](O)(C(C)=O)C[C@@H]3OC1CC(N)C(O)C(C)O1 (stereo not given in full)
class_name: bin 0
//
molecule: CC(=O)Nc1cc(C)ccc1C
class_name: bin 2
//
molecule: CN1CCN(CCCN2c3ccccc3Sc3ccc(C(F)(F)F)cc32)CC1
class_name: bin 0
